This collection of values is drawn from patent US20250171420A1.

Please provide measured DC50 for the entries that follow.
target: CK1α (Homo sapiens); construct: HEK293 clonal lines with CRISPR KI HiBiT tag on CSNK1A1; assay: CK1α NanoBit Assay (HiBiT-tagged CSNK1A1, HEK293 clonal lines); assay type: cell-based; conditions: HEK293 HiBiT-CSNK1A1/LgBiT cells, 24 h incubation
Sequence (P48729 whole entry): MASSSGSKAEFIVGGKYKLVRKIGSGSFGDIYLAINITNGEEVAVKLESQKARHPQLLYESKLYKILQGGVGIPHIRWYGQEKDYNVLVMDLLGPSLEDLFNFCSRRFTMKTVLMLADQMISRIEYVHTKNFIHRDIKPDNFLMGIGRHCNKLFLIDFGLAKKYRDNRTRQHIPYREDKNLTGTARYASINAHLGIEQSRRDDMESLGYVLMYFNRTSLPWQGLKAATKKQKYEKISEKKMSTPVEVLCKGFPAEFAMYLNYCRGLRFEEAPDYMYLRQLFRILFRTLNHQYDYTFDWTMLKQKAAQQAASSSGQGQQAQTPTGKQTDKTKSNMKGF
Sequence (Q96SW2 whole entry, further chain): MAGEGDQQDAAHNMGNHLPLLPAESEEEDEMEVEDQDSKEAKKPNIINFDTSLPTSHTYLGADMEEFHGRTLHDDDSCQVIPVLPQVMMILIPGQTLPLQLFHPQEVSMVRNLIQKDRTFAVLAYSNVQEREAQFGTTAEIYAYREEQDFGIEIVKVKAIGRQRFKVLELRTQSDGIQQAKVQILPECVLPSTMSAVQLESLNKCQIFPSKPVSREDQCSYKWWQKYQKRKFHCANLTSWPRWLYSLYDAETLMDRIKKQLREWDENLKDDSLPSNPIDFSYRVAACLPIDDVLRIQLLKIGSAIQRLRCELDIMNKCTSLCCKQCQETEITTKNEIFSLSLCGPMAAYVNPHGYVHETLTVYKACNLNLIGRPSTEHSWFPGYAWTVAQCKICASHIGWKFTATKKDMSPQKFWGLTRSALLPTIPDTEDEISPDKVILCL
Sequence (Q16531 2-1140 partner limits assumed): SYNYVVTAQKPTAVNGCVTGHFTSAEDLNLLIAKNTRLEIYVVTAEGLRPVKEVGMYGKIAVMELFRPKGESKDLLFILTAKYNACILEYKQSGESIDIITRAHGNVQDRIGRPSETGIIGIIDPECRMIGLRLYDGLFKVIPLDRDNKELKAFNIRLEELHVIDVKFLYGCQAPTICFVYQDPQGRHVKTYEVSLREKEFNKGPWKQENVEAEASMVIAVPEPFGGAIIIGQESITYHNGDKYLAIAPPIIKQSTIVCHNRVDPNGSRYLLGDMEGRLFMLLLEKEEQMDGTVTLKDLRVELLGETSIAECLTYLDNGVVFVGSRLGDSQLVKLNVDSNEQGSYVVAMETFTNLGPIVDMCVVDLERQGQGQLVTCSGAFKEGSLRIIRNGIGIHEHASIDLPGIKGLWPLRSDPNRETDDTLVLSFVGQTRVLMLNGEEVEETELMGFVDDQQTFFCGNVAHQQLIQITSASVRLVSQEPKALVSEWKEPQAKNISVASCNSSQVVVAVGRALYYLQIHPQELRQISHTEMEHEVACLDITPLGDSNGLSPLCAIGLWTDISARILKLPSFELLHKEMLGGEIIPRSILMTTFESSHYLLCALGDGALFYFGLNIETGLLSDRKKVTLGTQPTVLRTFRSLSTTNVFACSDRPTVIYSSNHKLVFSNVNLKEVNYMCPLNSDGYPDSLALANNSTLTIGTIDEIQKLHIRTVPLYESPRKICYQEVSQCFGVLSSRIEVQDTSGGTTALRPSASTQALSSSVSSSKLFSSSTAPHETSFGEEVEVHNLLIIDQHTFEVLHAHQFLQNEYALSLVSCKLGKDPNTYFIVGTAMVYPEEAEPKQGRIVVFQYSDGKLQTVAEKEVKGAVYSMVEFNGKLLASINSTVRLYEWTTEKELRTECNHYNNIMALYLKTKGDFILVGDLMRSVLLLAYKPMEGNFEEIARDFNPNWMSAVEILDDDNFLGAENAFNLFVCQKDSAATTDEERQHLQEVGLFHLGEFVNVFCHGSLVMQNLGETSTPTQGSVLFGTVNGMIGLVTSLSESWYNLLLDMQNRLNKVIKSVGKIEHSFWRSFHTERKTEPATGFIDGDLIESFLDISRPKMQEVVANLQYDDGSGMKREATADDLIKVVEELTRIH

Observed DC50, CK1α (Homo sapiens), O=C1CCC(N2Cc3cc(NC(=O)N4CCc5ccncc5C4)ccc3C2=O)C(=O)N1 (stereo not shown) : > 1 µM

Form field, DC50 with CK1α (Homo sapiens), item CC1(c2ccc3c(c2)CCN3C(=O)Nc2ccc3c(c2)CN(C2CCC(=O)NC2=O)C3=O)CC1 (stereo not shown) : < 0.1 µM

CK1α (Homo sapiens) assay, compound O=C1CCC(N2Cc3cc(NC(=O)N4Cc5ccccc5C(n5cccn5)C4)ccc3C2=O)C(=O)N1 (stereo not shown) , recorded DC50 = 0.1 to 1 µM

Response field DC50 (CK1α (Homo sapiens)) for item O=C1CCC(N2Cc3cc(NC(=O)N4CCc5cc(C6COC6)ccc54)ccc3C2=O)C(=O)N1 (stereo not shown) : < 0.1 µM
